B1: HDAC6 (parent)
chain: QYMNEGELRVLADTYDSVYLHPNS

Variants of: B1
Assay: protein stability index of a GFP-peptide fusion (GPS, HEK-293T) (PSI 1-6); higher = more stable;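 also: lentivirally expressed fusions sorted by FACS into six bins by GFP to DsRed ratio, PSI derived from sequencing read proportions per bin multiplied by bin number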
Details: c terminus: a fixed tail appended
Lab note: anything with protein stability index at or over 2 counts as 1 (yes); the rest go in 0 (no).

Here are 4 variants together with their reported answers.
mutation.annotation: S17W
class: 1 (yes)

mutation.annotation: S24E
class: 0 (no)

mutation.annotation: L8P
class: 1 (yes)

mutation.annotation: N4P
class: 1 (yes)

Now look at this one.
Q. Can V10R be said to have protein stability index at or above 2?
A. 0 (no)
